Task for the reader: assign each of the following compounds its reported TGI.
System: CCRF-CEM leukemia
Assay: NCI tumour cell line growth inhibition, 48 h
Please give a number only; it is taken to be in µM.

Given item "CCOC(=N)/C(=C1\OC(N)=C(c2ccc(Cl)cc2)C1=O)c1ccc(Cl)cc1" , the value recorded as its TGI is 65.6

Form field TGI, entry "C=C1C(=O)O[C@@H]2C=C(C)C3=CC(=O)[C@](C)(C[C@H](OC(=O)/C(C)=C\C)[C@@H]12)O3" : 0.82

---

System: UACC-257 melanoma
Experiment: NCI tumour cell line growth inhibition, 48 h; in the data active means GI50 below about 0.43 µM; inactive means the rest
I would appreciate it if you answered using one of these outcomes: active, inactive

Query block: Fill in: this test's call for "COc1cc(-c2nc(-c3nc4ccccc4[nH]3)cc3c2[nH]c2ccccc23)cc(OC)c1OC" is ___
Result block: inactive

Query block: What did the test return for "Cc1cn2c(/C=N/N=C(N)N)c(-c3cccs3)nc2s1" ?
Result block: inactive

Query block: Recorded test outcome, item "Cc1nc(N2CCC3(CC2)CO[C@@H](C)[C@H]3N)c(CO)nc1Sc1ccnc(N)c1Cl"
Result block: inactive

Query block: Which outcome was entered for the molecule "COc1ccccc1CNCCCN1C(=O)c2ccc3c4c(ccc(c24)C1=O)C(=O)N(CCCCNCCCN)C3=O" in this test?
Result block: inactive

Query block: // outcome(item) with item = "NC(=O)c1cccc(Nc2nccc(Nc3cccc4[nH]ncc34)n2)c1"
Result block: inactive

Query block: Would you mind telling me which call this test gave "COc1ccc(OC)c(-c2cc(-c3ccc(Cl)cc3)nn2-c2ccc(S(=O)(=O)NC(C)=O)cc2)c1" ?
Result block: inactive

Query block: Hi, sorry to bother you, what did the test record for "COc1ccc(OC)c2c1[nH]c(=O)c1c3ncccc3cn21" ?
Result block: inactive

Query block: What did the test return for CCCC(CCC)C(=O)OCC1(CO)C/C(=C\c2ccc(F)cc2)C(=O)O1 (centres undefined) ?
Result block: inactive

Query block: Entry C=C(OC1C(C)=C2C(C1OC(=O)CCCCCCC)C(C)(OC(C)=O)CC(OC(=O)CCC)C1(O)C2OC(=O)C1(C)O)/C(C)=C/C (centres undefined) : call = ?
Result block: active

---

Tested on: SW-620 colon
Assay: NCI tumour cell line growth inhibition, 48 h
Kindly supply the reported GI50 values for the records listed here.

Simply: "CC(C)(C)CC(C)(C)NCc1cc(C(C)(C)C)cc(CNC(C)(C)CC(C)(C)C)c1O" , SW-620 colon, GI50 = 2.79 µM

Bench note, SW-620 colon: "Cc1cn2c(/C=N/N=C(N)N)c(-c3cccs3)nc2s1" , GI50 reads 1.71 µM

The reported GI50 value, SW-620 colon, for OCC(O)c1nc2ccc3[nH]ncc3c2c2c1CCCC2 (stereo not drawn) reads 1.3 µM

Record "COc1ccc2c(c1)CC[C@H](O)/C2=C/c1cc(OC)c(OC)c(OC)c1" ; system SW-620 colon; GI50 = 0.0739 µM

Per the reported SW-620 colon data, C=C(OC1C(C)=C2C(C1OC(=O)CCCCCCC)C(C)(OC(C)=O)CC(OC(=O)CCC)C1(O)C2OC(=O)C1(C)O)/C(C)=C/C (stereo not drawn) has GI50 of < 0.0001 µM

Record "COc1ccc(OC)c2c1[nH]c(=O)c1c3ncccc3cn21" / SW-620 colon, GI50 recorded as 1.55 µM

Lab entry: SW-620 colon assay, molecule "CN1C(=O)N[C@H]2[C@@H]3NC(=O)c4ccc(Br)n4[C@@H]3C[C@]21O" , GI50 = 0.116 µM

Lab note: molecule "N#CC1=C(N)NC(N2CCOCC2)=NC12Nc1ccccc1N2" tested on SW-620 colon; recorded GI50 was 26.7 µM

---

System: OVCAR-3 ovarian
Assay: NCI tumour cell line growth inhibition, 48 h
Task for the reader: assign each of the following compounds its reported TGI.

Per the records, this compound ( CCCCCCCCCCCCCCCCOC[C@@H](COC(c1ccccc1)(c1ccccc1)c1ccccc1)O[P+](=S)OC (some centres undefined) ) has TGI equal to 31.8 µM

Summary for this compound, "N#Cc1c(-c2ccccc2)c(N=Nc2ccc(Cl)cc2)c(=O)n2c1[nH]c1ccccc12" : TGI is > 100 µM

compound "CC(C)C(/C=C/c1ccc(Cl)c(Cl)c1)=N\NC(=O)N/N=C(/C=C/c1ccc(Cl)c(Cl)c1)C(C)C" , TGI observed: > 100 µM

Field TGI (entry "CC/C(CC(=O)CCC(=O)Nc1ccccc1[N+](=O)[O-])=N/NC(=O)C[n+]1ccccc1" ) reads > 100 µM

Value of TGI reported for the compound "COc1ccc(N2C=Nn3c(nc4sc5c(c4c3=O)CCCC5)C2)cc1" is > 100 µM

# TGI (compound: "Cc1ccc(N(CC(=O)Nc2ccc(S(=O)(=O)N3CCC(N4CCCC4)CC3)cc2)S(=O)(=O)c2ccc(Cl)cc2)cc1" ) is 3.49 µM

Noted for "S=C(c1c[nH]c2ccccc12)N1CCN(Cc2ccccc2)CC1" : its TGI reads 29.4 µM

Measured TGI, COc1cc2c(cc1OC)C1(COc3cc(O)c(O)c(O)c3C1=O)C2 (centres undefined) : > 50 µM

Please fill in: TGI reported for "CCNC(=O)c1c(O)c2ccccc2[nH]c1=O" = > 100 µM

---

Assignment: determine reported TGI for the given molecules.
Tested on: SK-MEL-2 melanoma
Assay: NCI tumour cell line growth inhibition, 48 h
Only the number, expressed in µM, is required.

Entry "O=C(/C=C/c1ccccc1)n1c(-c2ccc(Cl)cc2)nc2ccccc21" — recorded TGI = 4.35

Briefly, TGI measured for COc1cccc(C2c3cc4c(cc3OC(N3CCCC3)C2C)OCO4)c1O (stereo unspecified) : 30.4

Documented TGI of CN(Cc1cc(Cl)cc(Cl)c1)CC(C(=O)c1ccccc1)c1ccccc1 (stereo unspecified) : 29.7

response.value for "CN(C)c1nc(=Nc2cccc(Cl)c2)ss1" (field: TGI) = 42.1

Entry "COc1ccc(N2C=Nn3c(nc4sc5c(c4c3=O)CCCC5)C2)cc1" , TGI reported as 93.1

Short answer for "COc1ccc(CN=C(N)N)c2ccccc12" : TGI was 86.9

The molecule CC(C)C1=CC23CCC4C(C)(C(=O)O)CCCC4(C)C2CC1C1C(=O)N(c2ccccc2)C(=O)C13 (stereo unspecified) showed TGI equal to 73.3

// "CC(C)=CCC/C(C)=C/CC/C(C)=C/CC/C(=C/CC/C(C)=C\CC/C(C)=C/CC/C(C)=C/CC/C(C)=C/Cc1cc(O)ccc1O)CO" : TGI value = 11.5

Quick note, TGI for "CC1=Nc2sc3c(c2C2=NCCN12)CCCC3" landed at 84.5

Record summary for CC(C)(C)[Si](C)(C)OC1[C@@H](O[Si](C)(C)C(C)(C)C)[C@@H](CNC(=O)NC(=O)CCl)O[C@H]1n1cnc2c(NC(=O)Nc3ccccc3)ncnc21 (stereo partly specified) : reported TGI = 2.01

Lookup result for "CCN(CC)CCNC(=O)c1cn2c(ccc3sc4ccccc4c(=O)c32)n1" ; measured TGI: 38

Please fill in: TGI reported for "Cc1c(C(=O)/C=C/c2ccccc2O)c(=O)n(-c2ccccc2)n1C" = 38.4

Looking up COC(=O)N1CC2C3C4CC(C(c5ccccc5)=C4c4ccccc4)C3C21 (stereo unspecified) , I found its TGI recorded as 50.5

Entry under test: "COc1cc(Nc2nc3ccccc3cc2C(=O)Nc2ccc(F)c(F)c2)cc(OC)c1OC" . Its TGI was 5.98

---

Test system: HL-60(TB) leukemia
Assay: NCI tumour cell line growth inhibition, 48 h
So I've got a bunch of molecules here, and I need their TGI values.
Just the number please, in µM, no unit attached.

get_value(item= "CCOC(=N)/C(=C1\OC(N)=C(c2ccc(Cl)cc2)C1=O)c1ccc(Cl)cc1" , readout=TGI) returns 42

"O=c1c(Cl)c(Cl)c(=O)c2sc3cc(Cl)ccc3[nH]c1=2" has a reported TGI of 23.7

// "COC(=O)c1cc(O)c2c(c1C(=O)OC)C[C@H]1[C@@H]3CC=C4C[C@@H](O)CC[C@]4(C)[C@H]3CC[C@]21C" : TGI value = 6.93

The recorded TGI for entry Clc1ccc(C2Nc3ccccc3C3=NCCN32)cc1 (stereo not given) equals 57.1

---

System: SK-MEL-28 melanoma
Test: NCI tumour cell line growth inhibition, 48 h
For each entry below, report its TGI value.
Provide only the numeric value, understood in µM.

Briefly, TGI measured for CCCCCCCCCCCCCCCC(=O)N(CCCCCCCCCCC(=O)O)CC(O)C(O)C(OC1OC(CO)C(O)C(O)C1O)C(O)CO (centres undefined) : 34.6

// sample CCOC(=O)C(Cc1cccn1C(=O)OC(C)(C)C)[N+](=O)[O-] (centres undefined) , its TGI was 69

Notebook: "CCOC(=O)C(C)(C)Oc1ccc(/C=C/C(=O)c2ccc(Cl)cc2)cc1" , TGI read as 34.7

Record CC(C)(C)C(=O)OC12/C(=N/O)CCCCCC1c1ccccc12 (centres undefined) , field TGI: 32.8

Measured TGI of "C=C1C(=O)O[C@@H]2C[C@]3(C)CC[C@]4(C)[C@H](CC[C@@H]5[C@@]6(C)CCC(=O)C(C)(C)[C@@H]6CC[C@]54C)[C@H]3[C@H]12" : 38.4

Noted for "COc1ccc2cc(CN3CCC(C4CCNCC4)CC3)ccc2c1" : its TGI reads 3.27

// sample "O=C(CNc1ccccc1[N+](=O)[O-])Nn1c(-c2ccccc2)nc2ccccc2c1=O" , its TGI was 59.2

Recorded TGI (compound "Oc1ccc(Cl)cc1CN1CCN(Cc2cc(Cl)ccc2O)C1" ): 6.78
